This listing pairs compounds with measured Ki.
# subject of test: Adenosine receptor A2a (Homo sapiens, UniProt P29274)
# Sequence (P29274 whole entry): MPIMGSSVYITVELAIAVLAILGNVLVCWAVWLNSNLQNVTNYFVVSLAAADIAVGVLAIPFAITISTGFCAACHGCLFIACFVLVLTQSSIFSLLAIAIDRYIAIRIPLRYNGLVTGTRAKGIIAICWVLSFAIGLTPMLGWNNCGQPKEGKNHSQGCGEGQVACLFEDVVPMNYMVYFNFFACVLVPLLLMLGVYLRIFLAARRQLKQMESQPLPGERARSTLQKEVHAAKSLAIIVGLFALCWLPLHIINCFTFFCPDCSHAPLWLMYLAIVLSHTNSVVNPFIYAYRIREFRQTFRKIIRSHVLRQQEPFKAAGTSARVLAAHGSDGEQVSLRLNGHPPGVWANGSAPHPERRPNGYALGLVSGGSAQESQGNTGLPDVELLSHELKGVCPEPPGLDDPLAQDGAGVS
# assay remarks: Displacement of [3H]SCH-58261 from human recombinant adenosine A2A receptor expressed in HEK293 cells
Numbers only here, please. The scale is µM.

Asked: Requested field: Ki. Item: COc1cccc(-n2c(=O)n(-c3ccccc3OC)c3cnc(NC4CC4)nc32)c1
Given back: 5.12

Asked: Requested field: Ki. Item: COc1cccc(-n2c(=O)n(Cc3c(F)cccc3F)c3cnc(NC4CCCC4)nc32)c1
Given back: 0.213

Asked: Requested field: Ki. Item: COc1cccc(-n2c(=O)n(Cc3c(F)cccc3F)c3cnc(NCc4cccnc4)nc32)c1
Given back: 0.066

Asked: Requested field: Ki. Item: COc1ccccc1Cn1c(=O)n(-c2cccc(OC(F)(F)F)c2)c2nc(NC3CC3)ncc21
Given back: 0.206

Asked: Requested field: Ki. Item: COc1ccccc1Cn1c(=O)n(-c2cccc(C)c2)c2nc(NC3CC3)ncc21
Given back: 0.316

Asked: Requested field: Ki. Item: COc1cccc(-n2c(=O)n(Cc3c(F)cccc3F)c3cnc(NCc4ccncc4)nc32)c1
Given back: 0.05

Asked: Requested field: Ki. Item: COc1cccc(-n2c(=O)n(Cc3ccccc3Cl)c3cnc(NC4CC4)nc32)c1
Given back: 0.086

---

This listing pairs compounds with measured pKi.
# subject of test: Adenosine receptor A2a (Homo sapiens, UniProt P29274)
# assay remarks: Displacement of [3H]SCH-58261 from human recombinant adenosine A2A receptor expressed in HEK293 cells
Lab note — pKi values are minus log10 of concentrations in M.

Sample answers from the record:
COc1cccc(-n2c(=O)n(Cc3c(F)cccc3F)c3cnc(NCC4CC4)nc32)c1    6.30
COc1cccc(-n2c(=O)n(Cc3ccccc3)c3cnc(NC4CC4)nc32)c1    7.27
COc1cccc(-n2c(=O)n(Cc3c(F)cccc3F)c3cnc(NCCN4CCOCC4)nc32)c1    6.59

Asked: Requested field: pKi. Item: CCNc1ncc2c(n1)n(-c1cccc(OC)c1)c(=O)n2Cc1c(F)cccc1F
Given back: 7.51

Asked: Requested field: pKi. Item: COc1ccccc1Cn1c(=O)n(-c2ccccc2OC)c2nc(NC3CC3)ncc21
Given back: 5.81

---

# subject of test: Adenosine receptor A1 (Homo sapiens, UniProt P30542)
# Sequence (P30542 whole entry): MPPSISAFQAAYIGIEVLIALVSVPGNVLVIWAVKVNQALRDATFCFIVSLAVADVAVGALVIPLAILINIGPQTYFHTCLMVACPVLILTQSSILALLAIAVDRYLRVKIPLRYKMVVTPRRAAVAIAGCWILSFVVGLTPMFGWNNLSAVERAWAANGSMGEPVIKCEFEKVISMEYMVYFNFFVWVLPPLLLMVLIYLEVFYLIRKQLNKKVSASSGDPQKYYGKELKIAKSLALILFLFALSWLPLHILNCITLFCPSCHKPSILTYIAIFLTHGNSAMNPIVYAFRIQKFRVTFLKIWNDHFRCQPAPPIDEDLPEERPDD
# assay remarks: Displacement of [3H]DPCPX from human recombinant adenosine A1 receptor expressed in CHOK1 cells
observation type: pKi
Lab note — pKi values are minus log10 of concentrations in M.

COCCNc1ncc2c(n1)n(-c1cccc(OC)c1)c(=O)n2Cc1c(F)cccc1F    5.83
COc1cccc(-n2c(=O)n(Cc3c(F)cccc3F)c3cnc(NCCc4ccccn4)nc32)c1    5.74

Asked: Requested field: pKi. Item: COc1cccc(-n2c(=O)n(Cc3c(F)cccc3F)c3cnc(NCc4ccncc4)nc32)c1
Given back: 5.92

Asked: Requested field: pKi. Item: COc1cccc(-n2c(=O)n(Cc3ccccc3F)c3cnc(NC4CC4)nc32)c1
Given back: 6.70

Asked: Requested field: pKi. Item: COc1cccc(-n2c(=O)n(Cc3c(F)cccc3F)c3cnc(NCCN(C)C)nc32)c1
Given back: 5.00

Asked: Requested field: pKi. Item: COc1cccc(-n2c(=O)n(Cc3c(F)cccc3F)c3cnc(NC(C)C)nc32)c1
Given back: 6.21

Asked: Requested field: pKi. Item: COc1cccc(-n2c(=O)n(Cc3c(F)cccc3F)c3cnc(NCc4cccnc4)nc32)c1
Given back: 5.89
